I'd be grateful if you could share measured Hs18S ΔCT for these entries.
# Test system: HCT-8 host cells (Hs18S)
# Experimental Setup: primary screening at 10 uM, treated vs control
Numbers only.

Some entries whose results are on file:
[
  {
    "Molecule": "CC(C)CCC[C@@H](C)[C@H]1CC[C@H]2C3=CC[C@H]4C[C@@H](O)CC[C@]4(C)[C@H]3CC[C@]12C [LATHOSTEROL]",
    "Assay System": "HCT-8 host cells (Hs18S)",
    "Hs18S ΔCT": 0.35
  },
  {
    "Molecule": "C[C@]12CCC(=O)C=C1CC[C@@H]1[C@@H]2C(=O)C[C@@]2(C)[C@H]1CC[C@]2(O)C(=O)CO [CORTISONE]",
    "Assay System": "HCT-8 host cells (Hs18S)",
    "Hs18S ΔCT": -0.17
  },
  {
    "Molecule": "C[C@@H]1CC[C@@]2(OC1)O[C@H]1[C@@H](O)[C@H]3[C@@H]4CC[C@H]5C[C@@H](O[C@@H]6O[C@H](CO)[C@H](O[C@@H]7O[C@H](CO)[C@@H](O)[C@H](O[C@@H]8OC[C@@H](O)[C@H](O)[C@H]8O)[C@H]7O[C@@H]7O[C@H](CO)[C@H](O)[C@H](O[C@@H]8O[C@H](CO)[C@@H](O)[C@H](O)[C@H]8O)[C@H]7O)[C@H](O)[C@H]6O)[C@H](O)C[C@]5(C)[C@H]4CC[C@]3(C)[C@H]1[C@@H]2C [DIGITONIN]",
    "Assay System": "HCT-8 host cells (Hs18S)",
    "Hs18S ΔCT": -0.12
  },
  {
    "Molecule": "COC(=O)/C(C)=C\\C[C@@]12OC(C)(C)[C@@H]3C[C@@H](C=C4C(=O)c5c(OC)c6c(c(CC=C(C)C)c5O[C@]431)O[C@](C)(CCC=C(C)C)C=C6)C2=O [METHYL GAMBOGATE METHYL ETHER]",
    "Assay System": "HCT-8 host cells (Hs18S)",
    "Hs18S ΔCT": 0.37
  },
  {
    "Molecule": "c1cncc(C2=NCCC2)c1 [MYOSMINE]",
    "Assay System": "HCT-8 host cells (Hs18S)",
    "Hs18S ΔCT": 0.07
  }
]

Batch: Hs18S ΔCT for all items listed.
1. COC1=CC(=O)O[C@@H](/C=C/c2ccccc2)C1 [KAWAIN]
2. C=CC[S+]([O-])C[C@H](N)C(=O)O (mixture of isomers) [L(+/-)-ALLIIN]
3. O=C1c2ccccc2C(=O)c2c1ccc(O)c2O [ALIZARIN]

Out:
1: -0.15; 2: -0.17; 3: -0.13

====

# Tested on: HCT-8 host cells (Hs18S)
Structures can show the parent of a compound that is named as a salt.
Decision: Hs18S ΔCT compared against 0.02; not below it gives T, below it gives F.

The following compounds have reported results that may help.
[
  {
    "Compound": "C[C@H]1CC[C@@H](C(C)(C)O)CC2=C1CC[C@@H]2C [GUAIOL(-)]",
    "Assay System": "HCT-8 host cells (Hs18S)",
    "Qualitative Label": "T"
  },
  {
    "Compound": "COc1cc2oc3cc(OC)c(OC)c(CC=C(C)C)c3c(=O)c2c(OC)c1CC=C(C)C",
    "Assay System": "HCT-8 host cells (Hs18S)",
    "Qualitative Label": "F"
  },
  {
    "Compound": "COc1ccc(Cc2nccc3cc(OC)c(OC)cc23)cc1OC [PAPAVERINE HYDROCHLORIDE]",
    "Assay System": "HCT-8 host cells (Hs18S)",
    "Qualitative Label": "T"
  },
  {
    "Compound": "NCCc1ccc(O)c(O)c1 [3-HYDROXYTYRAMINE]",
    "Assay System": "HCT-8 host cells (Hs18S)",
    "Qualitative Label": "T"
  },
  {
    "Compound": "O=C(O)CCCCCCCC(O)C(O)CCCCCCO (centres unmarked)",
    "Assay System": "HCT-8 host cells (Hs18S)",
    "Qualitative Label": "T"
  },
  {
    "Compound": "CNC[C@H](O)c1ccc(O)c(O)c1 [EPINEPHRINE BITARTRATE]",
    "Assay System": "HCT-8 host cells (Hs18S)",
    "Qualitative Label": "T"
  },
  {
    "Compound": "CC[C@H](C=C[C@@H](C)[C@H]1CC[C@H]2[C@@H]3CCC4=CC(=O)CC[C@]4(C)[C@H]3CC[C@]12C)C(C)C",
    "Assay System": "HCT-8 host cells (Hs18S)",
    "Qualitative Label": "T"
  },
  {
    "Compound": "O=c1ccc2ccc(O)cc2o1",
    "Assay System": "HCT-8 host cells (Hs18S)",
    "Qualitative Label": "F"
  }
]

In: Confirm if Hs18S ΔCT reported for the compound Cl.c1ccc2c(c1)CN1CCCC1=N2 [DEOXYPEGANINE HYDROCHLORIDE] is 0.02 or above.
Out: F

In: Moving on to the next compound: O=C1C[C@@H]2OCC=C3CN4CC[C@]56c7ccccc7N1[C@H]5[C@H]2[C@H]3C[C@H]46
Out: F

In: Moving on to the next compound: C[C@]12CC[C@H](O)C[C@@H]1CC[C@@H]1[C@@H]2CC[C@]2(C)C(=O)CC[C@@H]12 [EPIANDROSTERONE]
Out: F

In: Moving on to the next compound: NCCCCN [PUTRESCINE DIHYDROCHLORIDE]
Out: F

In: Moving on to the next compound: O=C1C=CC(=O)c2c(O)cccc21
Out: T

In: Moving on to the next compound: CCC(C)C(NC)C(=O)O (centres unmarked)
Out: F

In: Moving on to the next compound: C[C@@H](N)[C@@H](O)c1ccccc1
Out: F

In: Moving on to the next compound: O=c1cccc2n1C[C@@H]1CNC[C@H]2C1
Out: F

The reported measurements were obtained from paper PMC6736568.
